- System Name: human GcgR (Homo sapiens, UniProt P47871)
- Sequence (P47871 26-477): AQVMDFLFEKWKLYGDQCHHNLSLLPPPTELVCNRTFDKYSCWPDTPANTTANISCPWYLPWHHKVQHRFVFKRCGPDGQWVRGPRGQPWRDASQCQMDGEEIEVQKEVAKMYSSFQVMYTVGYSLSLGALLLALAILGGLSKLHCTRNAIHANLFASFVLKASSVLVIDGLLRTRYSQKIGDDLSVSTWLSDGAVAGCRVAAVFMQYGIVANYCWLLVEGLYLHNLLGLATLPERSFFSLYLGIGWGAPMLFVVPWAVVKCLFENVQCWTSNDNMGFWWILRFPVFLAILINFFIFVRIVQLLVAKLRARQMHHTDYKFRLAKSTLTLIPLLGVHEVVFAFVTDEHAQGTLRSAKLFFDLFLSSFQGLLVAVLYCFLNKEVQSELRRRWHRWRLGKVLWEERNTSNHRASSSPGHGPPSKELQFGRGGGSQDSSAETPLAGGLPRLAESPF
- Run Description: Functional cAMP activity in the presence of 1% HSA
- Assay type: cell-based
- Reported Conditions: read-out: cAMP Rel EC50, hGcgR
pEC50: −log10 of the molar value. Starred links: 1 amine or outer side, 2 acyl side, 3 side chain; linkers in the order of their positions; H or OH if unused. Non-standard residues stand in square brackets, D forms with d. Groups on a side chain read outwards from the residue. *: point of attachment. C20 diacid = O=C(O)CCCCCCCCCCCCCCCCCCC(=O)*; C18 diacid = O=C(O)CCCCCCCCCCCCCCCCC(=O)*; Phe(4-CN) = N#Cc1ccc(C[C@H](N)C(=O)O)cc1; αMePhe(2-F) = C[C@](N)(Cc1ccccc1F)C(=O)O; γGlu = O=C(O)[C@H](CCC(=O)[*:2])N[*:1]; NMeY = CN[C@@H](Cc1ccc(O)cc1)C(=O)O; αMe4Pal = C[C@](N)(Cc1ccncc1)C(=O)O; αMeY = C[C@](N)(Cc1ccc(O)cc1)C(=O)O; αMeF = C[C@](N)(Cc1ccccc1)C(=O)O; 4Pal = N[C@@H](Cc1ccncc1)C(=O)O; αMeL = CC(C)C[C@](C)(N)C(=O)O; αMeS = C[C@](N)(CO)C(=O)O; Orn = NCCC[C@H](N)C(=O)O; AEEA = NCCOCCOCC(=O)O; Aib = CC(C)(N)C(=O)O
Here the recorded pEC50 is given for each entry.
Measurement Kind: pEC50

1. H-Y[Aib]QGTFTSDFSK[αMeL]LDKK([AEEA-γGlu-C20 diacid])AQ[Aib]AFIEYLLAGGPSSGEPPPSSE-NH2 [Example 3]    5.80
2. H-Y[Aib]QGT[αMePhe(2-F)]TSD[Phe(4-CN)]SILLDKQAQK([AEEA-AEEA-γGlu-C20 diacid])AFIQYLLEGGPSSGEPPPSEG-NH2 [Example 353]    5.51
3. H-Y[Aib]QGTFTSDFS[Orn][αMeL]LDKK([AEEA-γGlu-γGlu-C18 diacid])AQ[Aib]AFIEYLLE[Aib]GPSSGAPPPSGT-NH2 [Example 278]    6.56
4. H-Y[Aib]QGTFTSD[4Pal]SQ[αMeL]LDKK([γGlu-γGlu-C18 diacid])AQ[αMe4Pal]AFIEYLIE[Aib]GPSSGAPPPSGSGE-NH2 [Example 891]    6.24
5. H-[NMeY][Aib]QGT[αMeF]TSDYSILLDKQAAK([AEEA-AEEA-γGlu-C20 diacid])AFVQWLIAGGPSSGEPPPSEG-NH2 [Example 301]    5.82
6. H-[NMeY][Aib]QGT[αMeF]TSDYSILLDKIAAK([AEEA-AEEA-γGlu-C20 diacid])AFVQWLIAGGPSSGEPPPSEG-NH2 [Example 300]    6.01
7. H-Y[Aib]QGTFTSDFS[Orn][αMeL]LDKK([AEEA-γGlu-C18 diacid])AQ[Aib]AFIEYLLEGGESSGAPPPGGS-NH2 [Example 161]    6.04
8. H-Y[Aib]QGTFTSD[4Pal]S[Orn][αMeL]LD[Orn]K([γGlu-γGlu-C18 diacid])AQ[αMe4Pal]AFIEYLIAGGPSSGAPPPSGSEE-NH2 [Example 1059]    6.13
9. H-Y[Aib]QGT[αMePhe(2-F)]TSD[4Pal][αMeS]I[αMeL]LD[Orn]K([AEEA-γGlu-C18 diacid])AQ[Aib][Orn]FI[dE][αMeY]LIEGGPSSGEPPPEGTGE-NH2 [Example 697]    6.89
10. H-Y[Aib]QGT[αMePhe(2-F)]TSD[4Pal][αMeS]I[αMeL]LD[Orn]K([AEEA-AEEA-γGlu-C18 diacid])AQ[Aib][Orn]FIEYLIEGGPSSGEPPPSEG-NH2 [Example 491]    6.80
11. H-Y[Aib]QGTFTSD[4Pal]SQ[αMeL]LD[Orn]K([γGlu-γGlu-C18 diacid])AQ[αMe4Pal]QFIEYLIAGGPSSGAPPPSGSEE-NH2 [Example 1005]    5.78

---

- System Name: hGIPR (Homo sapiens, UniProt P48546)
- Sequence (P48546 22-466): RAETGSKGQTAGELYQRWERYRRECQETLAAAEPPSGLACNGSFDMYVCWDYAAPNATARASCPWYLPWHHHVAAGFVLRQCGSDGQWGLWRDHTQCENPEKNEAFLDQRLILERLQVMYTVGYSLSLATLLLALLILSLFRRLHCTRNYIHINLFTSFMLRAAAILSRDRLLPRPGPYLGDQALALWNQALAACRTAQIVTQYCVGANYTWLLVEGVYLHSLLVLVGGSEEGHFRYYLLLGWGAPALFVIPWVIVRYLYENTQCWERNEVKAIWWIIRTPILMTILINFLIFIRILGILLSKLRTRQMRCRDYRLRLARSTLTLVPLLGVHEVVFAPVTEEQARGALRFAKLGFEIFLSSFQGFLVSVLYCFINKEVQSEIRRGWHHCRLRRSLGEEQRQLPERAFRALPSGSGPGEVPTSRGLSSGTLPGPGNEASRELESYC
- Run Description: Functional cAMP activation in the presence of 0.1% casein (no HSA);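 also: intracellular cAMP rise after 30 min at 37 °C read by HTRF against a standard curve, scaled between buffer alone (0%) and top control ligand concentration (100%), four-parameter fit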
- Type: cell-based
- Reported Conditions: in the presence of 0.1% casein (no HSA); geometric mean; read-out: Relative cAMP EC50, hGIPR
Starred links: 1 amine or outer side, 2 acyl side, 3 side chain; linkers in the order of their positions; H or OH if unused. Non-standard residues stand in square brackets, D forms with d. Groups on a side chain read outwards from the residue. *: point of attachment. C18 diacid = O=C(O)CCCCCCCCCCCCCCCCC(=O)*; γGlu = O=C(O)[C@H](CCC(=O)[*:2])N[*:1]; αMe4Pal = C[C@](N)(Cc1ccncc1)C(=O)O; αMeY = C[C@](N)(Cc1ccc(O)cc1)C(=O)O; αMeF = C[C@](N)(Cc1ccccc1)C(=O)O; 4Pal = N[C@@H](Cc1ccncc1)C(=O)O; αMeL = CC(C)C[C@](C)(N)C(=O)O; αMeS = C[C@](N)(CO)C(=O)O; Orn = NCCC[C@H](N)C(=O)O; AEEA = NCCOCCOCC(=O)O; Aib = CC(C)(N)C(=O)O
The following substances are listed with their measured EC50 values.
Measurement Kind: EC50

1) H-Y[Aib]QGTFTSD[4Pal]SQ[αMeL]LDKK([γGlu-γGlu-C18 diacid])AQ[αMe4Pal]AFIE[αMe4Pal]LIEGGPSSGAPPPSGS-NH2 [Example 951]    0.156 nM
2) H-Y[Aib]QGT[αMeF]TSD[4Pal][αMeS]I[αMeL]LD[Orn]K([γGlu-γGlu-C18 diacid])AQ[αMe4Pal]EFI[dE][αMeY]LIEGGPSSGEPPPSGGGE-NH2 [Example 1175]    0.00962 nM
3) H-Y[Aib]QGTFTSD[4Pal]SQ[αMeL]LDKK([γGlu-γGlu-γGlu-C18 diacid])AQ[αMe4Pal]AFIEYLIE[Aib]GPSSGAPPPSGS-NH2 [Example 859]    0.12 nM
4) H-Y[Aib]QGTFTSD[4Pal]S[Orn][αMeL]LD[Orn]K([dE-γGlu-C18 diacid])AQ[αMe4Pal]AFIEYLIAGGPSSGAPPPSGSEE-NH2 [Example 1063]    0.318 nM
5) H-Y[Aib]QGTFTSDFS[Orn][αMeL]LDKK([AEEA-γGlu-C18 diacid])AQ[Aib]AFIEYLLEGGPSSGAPPPGGE-NH2 [Example 63]    0.255 nM
